Taken from ChEMBL document CHEMBL2074392.

Target: UniProt:P08183
Experiment: TP_TRANSPORTER: inhibition of Digoxin transepithelial transport (basal to apical) (Digoxin: 5 uM) in Caco-2 cells

{"SMILES TEXT": "COc1ccc(CCCN2CCC(Cc3ccccc3)CC2)cc1OC", "IC50": "2.3 µM"}

----------
Target: ATP-dependent translocase ABCB1 (Homo sapiens)
Sequence (P08183 whole entry): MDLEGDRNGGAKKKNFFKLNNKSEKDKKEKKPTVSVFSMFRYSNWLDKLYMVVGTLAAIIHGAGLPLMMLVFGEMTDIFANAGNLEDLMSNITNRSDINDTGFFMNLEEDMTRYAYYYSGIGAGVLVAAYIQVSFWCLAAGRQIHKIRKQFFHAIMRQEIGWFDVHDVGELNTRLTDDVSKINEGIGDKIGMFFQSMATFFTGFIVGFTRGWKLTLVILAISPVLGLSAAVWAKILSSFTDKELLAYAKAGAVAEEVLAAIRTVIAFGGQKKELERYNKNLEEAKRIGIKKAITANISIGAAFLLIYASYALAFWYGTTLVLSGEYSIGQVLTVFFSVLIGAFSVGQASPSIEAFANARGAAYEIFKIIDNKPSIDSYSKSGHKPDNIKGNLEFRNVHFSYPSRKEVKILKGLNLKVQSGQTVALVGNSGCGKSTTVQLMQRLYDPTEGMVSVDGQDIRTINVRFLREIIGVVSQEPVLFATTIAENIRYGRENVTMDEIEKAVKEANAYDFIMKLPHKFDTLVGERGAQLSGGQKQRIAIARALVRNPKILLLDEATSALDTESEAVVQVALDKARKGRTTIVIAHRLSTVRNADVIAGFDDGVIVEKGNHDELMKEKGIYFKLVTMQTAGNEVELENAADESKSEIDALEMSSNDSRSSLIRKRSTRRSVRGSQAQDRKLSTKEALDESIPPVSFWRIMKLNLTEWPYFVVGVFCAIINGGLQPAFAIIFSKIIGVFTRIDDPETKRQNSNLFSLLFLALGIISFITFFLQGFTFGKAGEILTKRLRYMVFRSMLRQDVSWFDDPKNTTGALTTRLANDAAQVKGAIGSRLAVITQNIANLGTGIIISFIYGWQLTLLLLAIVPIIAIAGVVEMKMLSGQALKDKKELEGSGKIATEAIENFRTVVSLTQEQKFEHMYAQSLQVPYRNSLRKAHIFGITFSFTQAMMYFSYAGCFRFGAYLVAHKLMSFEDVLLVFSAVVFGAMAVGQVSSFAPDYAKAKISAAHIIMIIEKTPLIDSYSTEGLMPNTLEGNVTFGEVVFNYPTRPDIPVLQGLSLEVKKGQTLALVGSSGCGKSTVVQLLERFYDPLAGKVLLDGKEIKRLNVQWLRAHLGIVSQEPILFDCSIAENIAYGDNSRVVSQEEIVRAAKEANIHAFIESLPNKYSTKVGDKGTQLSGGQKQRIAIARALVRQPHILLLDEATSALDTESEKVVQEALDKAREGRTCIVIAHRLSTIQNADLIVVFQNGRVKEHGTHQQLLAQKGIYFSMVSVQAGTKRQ
Test: TP_TRANSPORTER: increase in Vinblastine intracellular accumulation in MDR1-expressing LLC-PK1 cells
Assay type: functional, cell-based
Reported Ki values for the following compounds.
TEST READOUT: Ki (µM)

{"COMPOUND": "CN1C[C@H](C(=O)N[C@]2(C)O[C@@]3(O)[C@@H]4CCCN4C(=O)[C@H](Cc4ccccc4)N3C2=O)C[C@@H]2c3cccc4[nH]cc(c34)C[C@H]21 [DIHYDROERGOTAMINE]", "TEST READOUT": "Ki", "OBSERVED RESULT": 120}
{"COMPOUND": "CC(C)C[C@H]1C(=O)N2CCC[C@H]2[C@]2(O)O[C@](NC(=O)[C@@H]3C[C@@H]4c5cccc6[nH]cc(c56)C[C@H]4N(C)C3)(C(C)C)C(=O)N12 [DIHYDROERGOCRYPTINE]", "TEST READOUT": "Ki", "OBSERVED RESULT": 19.8}
{"COMPOUND": "CC(C)C[C@H]1C(=O)N2CCC[C@H]2[C@]2(O)O[C@](NC(=O)[C@@H]3C=C4c5cccc6[nH]cc(c56)C[C@H]4N(C)C3)(C(C)C)C(=O)N12", "TEST READOUT": "Ki", "OBSERVED RESULT": 6.43}
{"COMPOUND": "CC(C)[C@@]1(NC(=O)[C@@H]2C[C@@H]3c4cccc5[nH]cc(c45)C[C@H]3N(C)C2)O[C@@]2(O)[C@@H]3CCCN3C(=O)[C@H](Cc3ccccc3)N2C1=O [DIHYDROERGOCRISTINE]", "TEST READOUT": "Ki", "OBSERVED RESULT": 16}
{"COMPOUND": "CC(C)[C@H]1C(=O)N2CCC[C@H]2[C@]2(O)O[C@](NC(=O)[C@@H]3C=C4c5cccc6[nH]cc(c56)C[C@H]4N(C)C3)(C(C)C)C(=O)N12", "TEST READOUT": "Ki", "OBSERVED RESULT": 24.5}
